# System under test: human JAK1 (a.a. 837-1142)
# Protocol description: In vitro JAK kinase assay (HTRF, phosphorylation of a biotinylated peptide), JAK1
# Assay type: biochemical
# Condition set: measured at 1 mM ATP; JAK2 IC50 / JAK1 IC50
Could you please mark yes (1) for values of IC50 Ratio JAK2/JAK1 below 5 and no (0) for values at or above it?

// below: answered molecules
A record lists CC1CC(N2CC(CC#N)(n3cc(-c4ncnc5[nH]ccc45)cn3)C2)CCN1Cc1ccc(N(C)C)c(C#N)c1F (single isomer, unassigned) [Example 243] . Is its IC50 Ratio JAK2/JAK1 below 5?
no (0)

Then what about the molecule N#CCC1(n2cc(-c3ccnc4[nH]ccc34)cn2)CN(C2CCN(C(=O)c3cc(C(F)(F)F)ncc3Cl)CC2)C1 [Example 298] ?
yes (1)

Then what about the molecule N#CCC1(n2cc(-c3ncnc4[nH]ccc34)cn2)CN(C2CCN(C(=O)c3c(F)cc(F)cc3F)CC2)C1 [Example 49] ?
no (0)

Then what about the molecule N#CCC1(n2cc(-c3ncnc4[nH]ccc34)cn2)CN(C2CCN(C(=O)c3csc4ccccc34)CC2)C1 [Example 96] ?
yes (1)

New cases:
A record lists N#CCC1(n2cc(-c3c(C#N)cnc4[nH]ccc34)cn2)CN(C2CCN(C(=O)c3c(F)cc(C#N)cc3F)CC2)C1 [Example 340] . Is its IC50 Ratio JAK2/JAK1 below 5?
yes (1)

Then what about the molecule N#CCC1(n2cc(-c3ncnc4[nH]ccc34)cn2)CN(C2CCN(C(=O)Nc3nccs3)CC2)C1 [Example 190] ?
yes (1)

Then what about the molecule N#CCC1(n2cc(-c3c(F)cnc4[nH]ccc34)cn2)CN(C2CCN(C(=O)c3cc(F)cc(C#N)c3)CC2)C1 [Example 316] ?
no (0)

----------
# System under test: human JAK1 (a.a. 837-1142)
# Protocol description: In vitro JAK kinase assay (HTRF, phosphorylation of a biotinylated peptide), JAK1
# Format: biochemical
# Condition set: measured at 1 mM ATP; JAK2 IC50 / JAK1 IC50
Examples of molecules with documented IC50 Ratio JAK2/JAK1 follow.

For orientation, consider the following solved cases.
Quick check: IC50 Ratio JAK2/JAK1 of COc1c(C(=O)N2CCC(N3CC(CC#N)(n4cc(-c5ncnc6[nH]ccc56)cn4)C3)CC2)csc1Cl [Example 74] ?
3.8

Then what about the molecule N#CCC1(n2cc(-c3ncnc4[nH]ccc34)cn2)CN(C2CCN(Cc3cccc(C#N)c3)CC2)C1 [Example 223] ?
5.9

Then what about the molecule Cn1cnc(S(=O)(=O)N2CCC(N3CC(CC#N)(n4cc(-c5ncnc6[nH]ccc56)cn4)C3)CC2)c1 [Example 258] ?
5.0

Then what about the molecule N#CCC1(n2cc(-c3ncnc4[nH]ccc34)cn2)CN(C2CCN(C(=O)c3ncco3)CC2)C1 [Example 16] ?
2.5

Then what about the molecule N#CCC1(n2cc(-c3ncnc4[nH]ccc34)cn2)CN(C2CCN(C(=O)C3CCC(C(F)(F)F)CC3)CC2)C1 (stereo not shown) [Example 98] ?
3.7

New cases:
Quick check: IC50 Ratio JAK2/JAK1 of N#CCC1(n2cc(-c3ncnc4[nH]ccc34)cn2)CN(C2CCN(C(=O)Nc3ncccc3F)CC2)C1 [Example 202] ?
6.4

Then what about the molecule N#CCC1(n2cc(-c3ncnc4[nH]ccc34)cn2)CN(C2CCN(C(=O)c3c(F)cccc3F)CC2)C1 [Example 44] ?
2.9
